- TEST: IkB Signaling;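 also: the direction sought is a rising ratio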
- MEASUREMENT_CONDITIONS: ABC-DLBCL IkBa-CBG/CBR dual luciferase ratio, 4 h; series mostly up to 57.1 µM
Among all 110,000 compounds or so, about 40 (0.04%) were called active. Another 22% or so got no clear call; they are omitted. The sample holds actives, similar compounds and a random draw of the others, so the mix is not that of the screen.
ASSAY_READOUT: outcome

Examples from the recorded data:
O=C(CS(=O)(=O)c1cccc2nsnc12)N1CCN(c2cccc(Cl)c2)CC1 : inactive
CCS(=O)(=O)c1nc(S(=O)(=O)c2ccc(C)cc2)c(NCc2ccc(Cl)cc2)s1 : inactive
Cc1ccc(CNC(=O)CSC2=Nc3ccccc3C3=NC(C)C(=O)N23)cc1 (stereo not given) : inactive
O=c1cc(CSc2ncn[nH]2)[nH]c2ccc(F)cc12 : inactive
Cc1ccc2nc(-c3ccc(C)c(NC(=O)Cc4ccccc4)c3)oc2c1 : inactive

Provide each entry's outcome from the list below.
1. Cc1ccc(N(C)C(=O)C2CCN(S(=O)(=O)c3ccc4c(c3)CCCN4C(=O)C3CCC3)CC2)cc1
2. COC(=O)c1ccccc1NC(=O)c1ccc(COc2ccccc2Cl)o1
3. CCOC(=O)c1sc(NC(=O)/C=C/c2ccc(C(C)C)cc2)c(C(=O)OCC)c1C
4. CCN(CC)C(=O)CSc1nc2cc3c(cc2c(=O)n1CCCC(=O)NCc1ccc2c(c1)OCO2)OCO3
5. COC(=O)c1cc2occc2n1Cc1nc(-c2ccccc2C)oc1C

// result
1. inactive
2. inactive
3. inactive
4. inactive
5. inactive

Batch: outcome for all items listed.
1. CCCN(CCC)C(=O)C(Cc1ccccc1)NS(=O)(=O)c1ccc2c(c1)c(=O)n(C)c(=O)n2C (stereo not given)
2. Cc1cccc(-c2nc(SCc3ccc(Br)cc3)n3[nH]c(=O)cc3n2)c1
3. COCCNC(=O)c1cc(-c2cccc(Cl)c2)on1

// result
["inactive", "inactive", "inactive"]
